The measurements presented in this section are drawn from ChEMBL document CHEMBL1201862.

# System: IGROV-1
# Assay Details: NCI tumour cell line growth inhibition, 48 h
Activity calls are given as the source filed them. Cut-off read from the data, not from the text of the source: active = GI50 up to about 1.1 µM and inactive = higher.
Your answer must be one of the following: active, inactive

The following molecules have reported results that may help.
Molecule: CCOC(=O)C(CNc1ccc(O)cc1)NC(=O)c1ccccc1 (stereo not drawn)
Discrete Label: inactive
//
Molecule: N/N=C(\N)SCCCCCCCCCCS/C(N)=N/N
Discrete Label: inactive
//
Molecule: COC(=O)CC(NC(=O)OCc1ccccc1)C(C(C)=O)C(=O)OCc1ccccc1 (stereo not drawn)
Discrete Label: inactive
//
Molecule: CC1C(O)[C@@]2(OC[C@@]34C(=O)CC5(O)[C@H](CCC6Cc7nc8c(nc7C[C@]65C)CC5CC[C@@H]6C7=C[C@H]9O[C@@]%10(O[C@@](C)(CO)C[C@@H]%10O)C(C)[C@@]9(O)[C@]7(C)[C@@H](O)CC6[C@]5(C)C8)C3=CC[C@H]4C2C)OC1(C)C (stereo partly drawn)
Discrete Label: active
//
Molecule: O=C1CCSSCCC(=O)Nc2ccccc2N1
Discrete Label: inactive

Recorded test outcome, item `Cc1c(NC(=O)CCCl)c(=O)oc2c(C)c3occc(=O)c3cc12`
inactive

Would you kindly repeat that for CC1(CCCO)CCCCCCCCCC(C)(CCCO)C1=O (stereo not drawn) ?
inactive

Would you kindly repeat that for `Nc1ncnc2c1ccn2CC#CCO` ?
inactive

###

# Tested on: K562
# Assay Details: NCI tumour cell line growth inhibition, 48 h
Activity calls are given as the source filed them. Rule as the data show it: active = GI50 up to about 1.1 µM and inactive = higher.
Value Type: GI50

Before answering, review these 5 worked examples.
Compound: CN/C(N)=N/N=C1/C(=O)Nc2ccccc21
Data Value: > 100 µM (inactive)
--
Compound: CCOC(=O)C(=CNC(Cc1c[nH]c2ccccc12)C(=O)OC)C(=O)OCC (stereo not given)
Data Value: > 100 µM (inactive)
--
Compound: [O-][S+]1CC[S+]([O-])CC[S+]([O-])CC1 (stereo not given)
Data Value: > 100 µM (inactive)
--
Compound: O=C1c2ccccc2C(=O)c2sc(Nc3ccc(Cl)cc3)nc21
Data Value: 1.96 µM (inactive)
--
Compound: O=C(Nc1cc(Cl)c(Cl)cc1Cl)C(=O)C(C(=O)c1ccc(Cl)c(Cl)c1)C1OC(=O)c2ccccc21 (stereo not given)
Data Value: 4.2 µM (inactive)

Which measured GI50 value corresponds to COC(NC(N)=O)C(=O)O (stereo not given) ?
> 100 µM (inactive)

Would you kindly repeat that for `O=C1C(=Cc2c(O)cc(O)cc2O)C(=O)c2ccccc21` ?
> 51.8 µM (inactive)

Would you kindly repeat that for CC(SC1=CC(=O)c2c(Cl)ccc(O)c2C1=O)C(=O)O (stereo not given) ?
18.7 µM (inactive)

Would you kindly repeat that for `O=C(c1ccccc1)N1C(=O)N(c2ccccc2)C(=N/c2ccccc2)/C1=N\c1ccccc1` ?
7.36 µM (inactive)

Would you kindly repeat that for CC1(C)CCCC2(C)C3C(O)CC2(C)C(O)C31 (stereo not given) ?
> 100 µM (inactive)

###

# Tested on: OVCAR-5
# Assay Details: NCI tumour cell line growth inhibition, 48 h
Active and inactive are the calls of the source. Cut-off read from the data, not from the text of the source: active = GI50 up to about 1.1 µM and inactive = higher.
Value Type: GI50

Before answering, review these 6 worked examples.
Compound: O=C1NC(=O)C2(CCc3ccc(N(CCCl)CCCl)cc32)N1 (configuration not stated)
GI50: 13.2 µM (inactive)

Compound: COC1CC(O)C(OC(=O)c2ccccc2)C(C)O1 (configuration not stated)
GI50: > 100 µM (inactive)

Compound: c1cc2c(cc1C1OCC3C(c4ccc5c(c4)OCO5)OCC13)OCO2 (configuration not stated)
GI50: 55.6 µM (inactive)

Compound: Oc1ccccc1C(c1cc2c(cc1O)OCO2)N1CCOCC1 (configuration not stated)
GI50: 25 µM (inactive)

Compound: CN/C(N)=N/N=C1/C(=O)Nc2ccccc21
GI50: > 100 µM (inactive)

Compound: COC(=O)c1nn(C(=N)c2ccc(Cl)cc2)c2c1CCC2
GI50: > 100 µM (inactive)

--- query ---
Which measured GI50 value corresponds to `CN(C)/C(=N/C(=O)Nc1ccccc1)SCc1ccccc1` ?
> 100 µM (inactive)

###

# System: Malme-3M
# Assay Details: NCI tumour cell line growth inhibition, 48 h
The source made the active and inactive calls. No stated cut-off is given here; in the data, active = GI50 up to about 1.1 µM and inactive = higher.
Value Type: GI50

Structure Smiles: COc1ccc(C)cc1NC(=S)N/N=C/c1ccc(SC)cc1
Tgt: Malme-3M
GI50: 96.4 µM (inactive)
--
Structure Smiles: Cc1ccc(/C=N/Nc2cc(C)c3cccc(C)c3n2)s1
Tgt: Malme-3M
GI50: 15.1 µM (inactive)

--- query ---
Which measured GI50 value corresponds to `C#CCOc1c(C(=O)OCC)c(=O)n(C)c2ccccc12` ?
> 100 µM (inactive)

###

# Test system: RXF 393
# Assay Details: NCI tumour cell line growth inhibition, 48 h
Activity calls are given as the source filed them. No stated cut-off is given here; in the data, active = GI50 up to about 1.1 µM and inactive = higher.
Form field: GI50 (one value per entry).

Molecule: Cc1cc2c(cc1Cl)SC(NNc1ccc([N+](=O)[O-])cc1)=NS2(=O)=O
GI50: > 10 µM (inactive)
//
Molecule: CCOP(=O)(OCC)/C(=C/c1cccs1)CC(C)=O
GI50: > 100 µM (inactive)

--- query ---
Which measured GI50 value corresponds to c1cc2c(cc1C1OCC3C(c4ccc5c(c4)OCO5)OCC13)OCO2 (centres undefined) ?
57.9 µM (inactive)

###

# Tested on: DU-145
# Assay Details: NCI tumour cell line growth inhibition, 48 h
The source made the active and inactive calls. No stated cut-off is given here; in the data, active = GI50 up to about 1.1 µM and inactive = higher.
Value Type: GI50

Compound: CC(C)(C)OC(=O)c1cnc(Cl)cn1
Data Value: 87.5 µM (inactive)

Which measured GI50 value corresponds to CC(=O)Oc1ccc(OC(Oc2ccccc2)c2ccccc2)cc1 (stereo unspecified) ?
36.9 µM (inactive)

Would you kindly repeat that for `Cc1c(NC(=O)CCCl)c(=O)oc2c(C)c3occc(=O)c3cc12` ?
> 100 µM (inactive)

Would you kindly repeat that for `CC(=O)C1=CC=C/C1=N\Nc1ccccc1` ?
14.9 µM (inactive)

Would you kindly repeat that for COc1cc(C2C(Cl)C(=O)N2NC(=O)c2ccc(NC(C)=O)cc2OC)ccc1O (stereo unspecified) ?
21.3 µM (inactive)

Would you kindly repeat that for `O=C(N/N=C1\CCc2ccccc2C1)N/N=C1\CCc2ccccc2C1` ?
> 10 µM (inactive)

Would you kindly repeat that for `NCCCNOCCCN` ?
> 100 µM (inactive)

###

Form field: GI50 (one value per entry).
# Test system: COLO 205
# Assay Details: NCI tumour cell line growth inhibition, 48 h
The source made the active and inactive calls. Rule as the data show it: active = GI50 up to about 1.1 µM and inactive = higher.

Molecule: Cc1ccccc1/C=C/C(=O)c1ccccc1
Tgt: COLO 205
GI50: 21.4 µM (inactive)

Molecule: CCCCn1c(CSc2ccc(Cl)cc2)c(C(=O)OCC)c2cc(OC)c(Br)cc21
Tgt: COLO 205
GI50: > 100 µM (inactive)

Molecule: CN(C)CCCOc1ccc(/C=C2/CCC/C(=C/c3ccc(OCCCN(C)C)cc3)C2=O)cc1
Tgt: COLO 205
GI50: 1.73 µM (inactive)

Molecule: CC1=CC2C3(C)C(C)(C(C)=CP3(=O)c3c(C(C)C)cc(C(C)C)cc3C(C)C)C1P2(=O)c1c(C(C)C)cc(C(C)C)cc1C(C)C (configuration not stated)
Tgt: COLO 205
GI50: 1.6 µM (inactive)

Which measured GI50 value corresponds to S=C(S)NCC1CCC(CNC(=S)S)CC1 (configuration not stated) ?
42 µM (inactive)

Would you kindly repeat that for `O=C(O)C1(C(=O)O)CC1(C(=O)O)C(=O)O` ?
> 100 µM (inactive)

Would you kindly repeat that for `COC(=O)/C=C\C(C#N)(C#N)/N=C/c1ccc(OC)cc1` ?
1.65 µM (inactive)

Would you kindly repeat that for c1cc2c(cc1C1OCC3C(c4ccc5c(c4)OCO5)OCC13)OCO2 (configuration not stated) ?
67.8 µM (inactive)

Would you kindly repeat that for COC(=O)C(Cc1nc2ccc(Cl)cc2nc1O)C(=O)C(=O)Nc1ccccc1[N+](=O)[O-] (configuration not stated) ?
> 100 µM (inactive)

Would you kindly repeat that for Cc1ccccc1C(C#N)C(=O)C(=O)Nc1cccc(Cl)c1 (configuration not stated) ?
58.3 µM (inactive)

Would you kindly repeat that for COc1ncn(C2C=C(CO)C(O)C2O)c(=O)n1 (configuration not stated) ?
> 100 µM (inactive)

Would you kindly repeat that for `COc1ccc(/N=C2\C(=S)N(c3ccc(OC)cc3)/C(=N/S(=O)(=O)c3ccccc3)N2c2ccccc2)cc1` ?
8.81 µM (inactive)

###

# Test system: NCI-H522
# Assay Details: NCI tumour cell line growth inhibition, 48 h
Activity calls are given as the source filed them. Rule as the data show it: active = GI50 up to about 1.1 µM and inactive = higher.
Your answer must be one of the following: active, inactive

The following compounds have reported results that may help.
Compound: O=[N+]([O-])c1ccc2nc(O)c(/C=C(\O)c3ccccc3)nc2c1
Discrete Label: inactive

Compound: CC1(C)CCCC2(C)C3C(O)CC2(C)C(O)C31 (stereo not given)
Discrete Label: inactive

Compound: CNC(=O)c1nc[nH]c1/N=N/N(C)N
Discrete Label: inactive

Compound: CC(=O)C1=CC=C/C1=N\Nc1ccccc1
Discrete Label: inactive

Compound: Cc1ccc2c(O)cc(-c3csc4ccccc34)nc2n1
Discrete Label: active

Recorded test outcome, item OCC(O)COc1c(Cl)cc(Cl)cc1Cl (stereo not given)
inactive

Would you kindly repeat that for C=C1C(=O)C23CC1CCC2C12CO[C@H](O)[C@H]1C(C)(C)[C@H](OC(C)=O)C[C@H]2OC3=O (stereo not given in full) ?
inactive
